System Under Test: Cytochrome P450 2D6 (Homo sapiens)
Sequence (P10635 whole entry): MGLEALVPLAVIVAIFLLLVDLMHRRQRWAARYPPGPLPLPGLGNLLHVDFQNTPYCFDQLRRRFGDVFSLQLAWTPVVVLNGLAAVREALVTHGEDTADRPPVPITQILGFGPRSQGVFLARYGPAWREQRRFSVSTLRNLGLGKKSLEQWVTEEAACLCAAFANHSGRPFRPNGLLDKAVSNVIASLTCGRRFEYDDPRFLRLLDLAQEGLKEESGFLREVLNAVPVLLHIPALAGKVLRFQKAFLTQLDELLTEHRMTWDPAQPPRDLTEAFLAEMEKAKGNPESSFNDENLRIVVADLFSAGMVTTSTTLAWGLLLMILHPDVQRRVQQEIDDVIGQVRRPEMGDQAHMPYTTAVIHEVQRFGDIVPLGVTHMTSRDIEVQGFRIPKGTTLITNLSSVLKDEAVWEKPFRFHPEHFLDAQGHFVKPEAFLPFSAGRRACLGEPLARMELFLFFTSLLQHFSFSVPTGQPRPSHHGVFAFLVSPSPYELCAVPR
pIC50: −log10 of the molar value.
Property Label: pIC50

Cc1cc(C(=O)O)nc(N2C[C@H]3C[C@@H](c4ccccc4C(F)(F)F)C[C@H]3C2)n1
< 4.47

====

System: MDCK
Experimental Protocol: Apparent permeability across basolateral to apical side in MDCK cells expressing MDR1
Assay type: ADME, cell-based, Canis lupus familiaris
Reported Conditions: dog
Property Label: Papp (×10⁻⁶ cm/s)

Cc1cc(C(=O)O)nc(N2C[C@H]3C[C@@H](c4ccccc4C(F)(F)F)C[C@H]3C2)n1
82.2

====

System Under Test: Cytochrome P450 2C9 (Homo sapiens, UniProt P11712)
Sequence (P11712 whole entry): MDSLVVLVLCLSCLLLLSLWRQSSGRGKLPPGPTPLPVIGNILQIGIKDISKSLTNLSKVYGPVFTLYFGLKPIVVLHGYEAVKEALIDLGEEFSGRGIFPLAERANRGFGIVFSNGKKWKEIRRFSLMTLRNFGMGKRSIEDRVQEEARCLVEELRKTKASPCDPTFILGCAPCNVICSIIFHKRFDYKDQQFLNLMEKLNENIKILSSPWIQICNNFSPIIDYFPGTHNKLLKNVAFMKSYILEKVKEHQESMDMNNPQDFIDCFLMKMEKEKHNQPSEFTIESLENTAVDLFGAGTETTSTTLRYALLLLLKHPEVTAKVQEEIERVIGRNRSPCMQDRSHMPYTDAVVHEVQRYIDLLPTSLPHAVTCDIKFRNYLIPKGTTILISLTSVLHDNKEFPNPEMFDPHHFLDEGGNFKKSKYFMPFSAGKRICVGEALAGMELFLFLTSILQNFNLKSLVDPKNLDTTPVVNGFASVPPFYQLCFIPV
pIC50: −log10 of the molar value.
Property Label: pIC50

Cc1cc(C(=O)O)nc(N2C[C@H]3C[C@@H](c4ccccc4C(F)(F)F)C[C@H]3C2)n1
< 4.47

====

Experimental Protocol: Metabolic stability in rat liver microsomes assessed as compound remaining at 10 uM after 30 mins
Type: ADME
Reported Conditions: read-out: Stability
This section presents compounds with their documented remaining at 0.5 h, 10 µM values.
Property Label: remaining at 0.5 h, 10 µM

COC(=O)c1cc(C)nc(N2C[C@H]3C[C@@H](c4ccccc4C(F)(F)F)C[C@H]3C2)n1
9.8%
Cc1cc(C(=O)O)nc(N2CCN(c3ccccc3C(F)(F)F)CC2)n1
63%
COC(=O)c1cc(C)nc(N2CCN(c3ccccc3C(F)(F)F)CC2)n1
0%
Cc1cc(C(=O)O)nc(N2C[C@H]3C[C@@H](c4ccccc4C(F)(F)F)C[C@H]3C2)n1
93%
Cc1cc(C(=O)O)nc(N2CCC(c3ccccc3C(F)(F)F)CC2)n1
96%
Cc1cc(C(=O)O)nc(N2C[C@@H]3CN(c4ccccc4C(F)(F)F)C[C@@H]3C2)n1
76%

====

System: Rattus norvegicus
Experimental Protocol: Cmax in Sprague-Dawley rat at 5 mg/kg, po by HPLC/MS/MS method
Type: ADME, organism-based
Parameters: dose 5 mg/kg, route oral
Reported Conditions: in vivo
Property Label: Cmax

Cc1cc(C(=O)O)nc(N2C[C@H]3C[C@@H](c4ccccc4C(F)(F)F)C[C@H]3C2)n1
62.2 µM

====

Tested on: Rattus norvegicus
Experimental Protocol: AUClast in Sprague-Dawley rat at 5 mg/kg, po qd administered for 7 days measured on day 7 post last dose by HPLC/MS/MS method
Format: ADME, organism-based
Design: dose 5 mg/kg, route oral, time 0 - last
Reported Conditions: in vivo, 168 h
Property Label: AUClast (ng·h/mL)

Cc1cc(C(=O)O)nc(N2C[C@H]3C[C@@H](c4ccccc4C(F)(F)F)C[C@H]3C2)n1
6380

====

Tested on: Rattus norvegicus
Experimental Protocol: Cmax in Sprague-Dawley rat at 5 mg/kg, po measured on day 1 by HPLC/MS/MS method
Type: ADME, organism-based
Parameters: dose 5 mg/kg, route oral
Reported Conditions: in vivo
Property Label: Cmax (µM)

Cc1cc(C(=O)O)nc(N2C[C@H]3C[C@@H](c4ccccc4C(F)(F)F)C[C@H]3C2)n1
66.5

====

Experimental Protocol: Plasma concentration in Sprague-Dawley rat at 5 mg/kg, po qd administered for 7 days measured at 4 hrs post dose on day 7 by HPLC/MS/MS method
Assay type: ADME, organism-based
Property Label: concentration at 4 h (µM)

Cc1cc(C(=O)O)nc(N2C[C@H]3C[C@@H](c4ccccc4C(F)(F)F)C[C@H]3C2)n1
179

====

This section presents compounds with their documented remaining at 0.5 h, 10 µM values.
Experimental Protocol: Metabolic stability in human liver microsomes assessed as compound remaining at 10 uM after 30 mins
Type: ADME
Reported Conditions: read-out: Stability
Property Label: remaining at 0.5 h, 10 µM (%)

Cc1cc(C(=O)O)nc(N2CCN(c3ccccc3C(F)(F)F)CC2)n1
18
Cc1cc(C(=O)O)nc(N2CCC(c3ccccc3C(F)(F)F)CC2)n1
68
COC(=O)c1cc(C)nc(N2C[C@H]3C[C@@H](c4ccccc4C(F)(F)F)C[C@H]3C2)n1
0.2
Cc1cc(C(=O)O)nc(N2C[C@@H]3CN(c4ccccc4C(F)(F)F)C[C@@H]3C2)n1
80
COC(=O)c1cc(C)nc(N2CCN(c3ccccc3C(F)(F)F)CC2)n1
0
Cc1cc(C(=O)O)nc(N2C[C@H]3C[C@@H](c4ccccc4C(F)(F)F)C[C@H]3C2)n1
94

====

System Under Test: Retinol-binding protein 4 (Homo sapiens)
Experimental Protocol: Inhibition of retinol-induced interaction of bacterially expressed MBP-tagged RBP4 (unknown origin) with Eu3+ cryptate labeled TTR by HTRF assay
pIC50: −log10 of the molar value.
This section presents compounds with their documented pIC50 values.
Property Label: pIC50

Cc1sc(N2C[C@H]3C[C@@H](c4ccccc4C(F)(F)F)C[C@H]3C2)nc1C(=O)O
6.31
Cc1ccc(C(=O)O)c(N2C[C@H]3C[C@@H](c4ccccc4C(F)(F)F)C[C@H]3C2)n1
5.70
Cc1cc(-c2nnn[nH]2)nc(N2C[C@H]3C[C@@H](c4ccccc4C(F)(F)F)C[C@H]3C2)n1
6.76
Cc1cc(C(=O)O)nc(N2C[C@H]3C[C@@H](c4cccnc4C(F)(F)F)C[C@H]3C2)n1
6.14
O=C(O)c1cccc(N2C[C@H]3C[C@@H](c4ccccc4C(F)(F)F)C[C@H]3C2)c1
5.40
Cc1cc(C(=O)O)nc(N2C[C@H]3C[C@@H](c4cccc(F)c4Cl)C[C@H]3C2)n1
6.30
COC(=O)c1cc(C)nc(N2CCN(c3ccccc3C(F)(F)F)CC2)n1
5.85
Cc1cc(C(=O)O)nc(N2C[C@@H]3CN(c4ccccc4C(F)(F)F)C[C@@H]3C2)n1
6.85
COC(=O)c1cc(C)nc(N2CCC(c3ccccc3C(F)(F)F)CC2)n1
6.88
COC(=O)c1cc(C)nc(N2C[C@H]3C[C@@H](c4ccccc4C(F)(F)F)C[C@H]3C2)n1
7.00
Cc1cc(C(=O)O)nc(N2C[C@H]3C[C@@H](c4cc(F)ccc4C(F)(F)F)C[C@H]3C2)n1
7.48
Cc1cc(C(=O)O)nc(N2C[C@H]3C[C@@H](c4cc(F)ccc4Cl)C[C@H]3C2)n1
6.46
O=C(O)c1cnnc(N2C[C@H]3C[C@@H](c4ccccc4C(F)(F)F)C[C@H]3C2)c1
6.36
Cc1cc(C(=O)O)nc(N2CCC(c3ccccc3C(F)(F)F)CC2)n1
6.73
Cc1cc(C(=O)O)nc(N2C[C@H]3C[C@@H](c4cnccc4C(F)(F)F)C[C@H]3C2)n1
6.09
Cc1ccc(N2C[C@H]3C[C@@H](c4ccccc4C(F)(F)F)C[C@H]3C2)nc1C(=O)O
5.31
Cc1cc(C(N)=O)nc(N2C[C@H]3C[C@@H](c4ccccc4C(F)(F)F)C[C@H]3C2)n1
6.61

====

System: MDCK
Experimental Protocol: Apparent permeability across apical to basolateral side in MDCK cells expressing MDR1
Type: ADME, cell-based, Canis lupus familiaris
Reported Conditions: dog
Property Label: Papp (×10⁻⁶ cm/s)

Cc1cc(C(=O)O)nc(N2C[C@H]3C[C@@H](c4ccccc4C(F)(F)F)C[C@H]3C2)n1
74.7

====

Test system: Rattus norvegicus
Experimental Protocol: Cmax in Sprague-Dawley rat at 5 mg/kg, po qd administered for 7 days measured on day 7 post last dose by HPLC/MS/MS method
Format: ADME, organism-based
Set-up: dose 5 mg/kg, route oral
Reported Conditions: in vivo, 168 h
Property Label: Cmax (µM)

Cc1cc(C(=O)O)nc(N2C[C@H]3C[C@@H](c4ccccc4C(F)(F)F)C[C@H]3C2)n1
183

====

System Under Test: UniProt P08684
Sequence (P08684 whole entry): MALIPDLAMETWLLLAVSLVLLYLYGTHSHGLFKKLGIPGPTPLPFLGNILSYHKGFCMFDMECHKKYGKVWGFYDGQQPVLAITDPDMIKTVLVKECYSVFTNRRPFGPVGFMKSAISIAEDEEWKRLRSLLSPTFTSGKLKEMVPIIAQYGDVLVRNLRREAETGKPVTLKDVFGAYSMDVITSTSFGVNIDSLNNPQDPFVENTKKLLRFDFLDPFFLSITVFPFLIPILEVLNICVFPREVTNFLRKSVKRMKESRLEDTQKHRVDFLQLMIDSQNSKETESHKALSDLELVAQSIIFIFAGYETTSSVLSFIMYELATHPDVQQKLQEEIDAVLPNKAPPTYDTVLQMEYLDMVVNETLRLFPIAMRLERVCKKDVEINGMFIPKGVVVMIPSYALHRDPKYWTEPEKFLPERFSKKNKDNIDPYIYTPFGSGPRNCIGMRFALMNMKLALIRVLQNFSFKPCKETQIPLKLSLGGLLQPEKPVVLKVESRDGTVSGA
Property Label: IC50

Cc1cc(C(=O)O)nc(N2C[C@H]3C[C@@H](c4ccccc4C(F)(F)F)C[C@H]3C2)n1
> 34 µM

====

This section presents compounds with their documented IC50 values.
System Under Test: Retinol-binding protein 4 (Homo sapiens, UniProt P02753)
Experimental Protocol: Inhibition of retinol-induced interaction of bacterially expressed MBP-tagged RBP4 (unknown origin) with Eu3+ cryptate labeled TTR by HTRF assay
Property Label: IC50 (nM)

Cc1nc(N2C[C@H]3C[C@@H](c4ccccc4C(F)(F)F)C[C@H]3C2)ncc1C(=O)O
523
COc1cc(C(=O)O)nc(N2C[C@H]3C[C@@H](c4ccccc4C(F)(F)F)C[C@H]3C2)n1
81.2
Cc1cc(C(=O)O)nc(N2CCN(c3ccccc3C(F)(F)F)CC2)n1
511

====

Experimental Protocol: Plasma concentration in Sprague-Dawley rat at 5 mg/kg, po qd administered for 7 days measured at 48 hrs post dose on day 7 by HPLC/MS/MS method
Type: ADME, organism-based
Property Label: concentration at 48 h (µM)

Cc1cc(C(=O)O)nc(N2C[C@H]3C[C@@H](c4ccccc4C(F)(F)F)C[C@H]3C2)n1
97.1

Reference for the values: ChEMBL document CHEMBL3593175
